target.of.assay: T1, Myosin VI cargo-binding domain (CBD) with C-terminal mCerulean (human, UniProt Q9UM54 991-1294, C-terminal mCerulean omitted. Limits are those printed for the Kd FRET assay (CBD 991-1294, LI+SI isoform of 1294 aa); the construct list instead gives 1030-1284.)
T1 chain: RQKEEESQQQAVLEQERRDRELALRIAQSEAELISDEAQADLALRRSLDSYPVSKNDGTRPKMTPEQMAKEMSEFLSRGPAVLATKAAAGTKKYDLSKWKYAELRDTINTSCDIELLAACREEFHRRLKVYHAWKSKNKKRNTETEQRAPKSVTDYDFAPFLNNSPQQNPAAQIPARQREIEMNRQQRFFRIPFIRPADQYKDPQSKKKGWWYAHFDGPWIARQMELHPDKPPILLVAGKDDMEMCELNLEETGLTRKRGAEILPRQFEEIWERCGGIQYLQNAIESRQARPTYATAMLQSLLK
method: FRET or BRET; bimolecular FRET titration in solution; CBD-mCer held constant at 30 nM, increasing DAB2-MIR-mCit titrated in; excitation 430 nm, cross-excitation spectra subtracted
test.conditions: both partners purified
Ends that are not written are not given here.
endpoint.label: Kd

For the binder shown here, SSGTLSAFASYFNSKVGIPQENADHDDFDANQLLNKINE-mCitrine (domain or fragment, human, UniProt P98082 675-713, looked up, Dab2, human, a.a; fluorophore joined through a flexible (Gly-Ser-Gly) x 2 repeat; Cloned into pBiex1; also called DAB2-MIR-mCit; mCit-MIR; not shown: mCitrine, C-terminal, kept) [Dab2 myosin interacting region (MIR) with C-terminal mCitrine] , give the reported Kd.
~184 nM
